Experiment description: inhibitors of mutant huntingtin aggregation, primary screen, imaging, exon1htt(103Q)mCFP cells, high-content imaging (AID 483);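 also: compound exposure lasted 3 days before fixation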
Stated conditions: exon1htt(103Q)mCFP cell line, aggregate imaging, at 2 µM; measured here: cell count, toxicity
Quick rule for you: nuclei count at 90% or higher means rule met, lower means rule not met.

Answered cases to consult:
INSERT INTO assay_data (compound, answer_label) VALUES
  ('CCOC(=O)c1[nH]c2ccccc2c1NC(=O)CCN1CCN(C(=O)OCC)CC1', 'rule met'),
  ('CC(=O)OCC(=O)[C@@]1(O)CC[C@H]2[C@@H]3CCC4=CC(=O)C=C[C@]4(C)[C@@]3(Cl)[C@@H](Cl)C[C@@]21C', 'rule not met'),
  ('O=C(C1CCN(c2nnc(-n3cccc3)s2)CC1)N1CCc2ccccc2C1', 'rule not met'),
  ('C=CCn1c(SCC(=O)NC23CC4CC(CC(C4)C2)C3)nc(O)cc1=O', 'rule met'),
  ('CCCC(=O)O[C@]1(C(=O)CCl)[C@@H](C)C[C@H]2[C@@H]3CCC4=CC(=O)C=C[C@]4(C)[C@@]3(F)C(=O)C[C@@]21C', 'rule not met');

Answer whether nuclei count of CC(=O)Oc1cccc2c1C(=O)c1c(OC(C)=O)cc(C(=O)O)cc1C2=O is greater than or equal to 90%.
rule met

Answer whether nuclei count of O=C1C2CC=C(Cl)CC2C(=O)N1CNc1ccccn1 (centres undefined) is greater than or equal to 90%.
rule not met
